CC50 at 48 h for assorted compounds
# protocol.notes: Cytotoxicity assay (MTT), HPC normal cells
# Assay type: cell-based
# test.parameters: human, HPC normal oral cells, non-tumor cells

compound	CC50 at 48 h (µM)
COc1cc(C2=NN(c3ccc(S(N)(=O)=O)cc3)C(c3ccc4c(c3)OCO4)C2)cc(OC)c1OC (stereo not drawn)	371
COc1cccc(C2=NN(c3ccc(S(N)(=O)=O)cc3)C(c3ccc4c(c3)OCO4)C2)c1 (stereo not drawn)	140
COc1ccccc1C1=NN(c2ccc(S(N)(=O)=O)cc2)C(c2ccc3c(c2)OCO3)C1 (stereo not drawn)	37

* * *

# protocol.notes: Cytotoxicity assay (MTT), HPLF normal cells
# Assay type: cell-based
# test.parameters: human, HPLF periodontal ligament fibroblasts (normal oral cells), non-tumor cells
# Experimental: The cytotoxicity of the compounds 4a - 4j were assayed towards human tumor cell lines [gingival carcinoma (Ca9–22), oral squamous cell carcinoma (HSC-2)] and human normal oral cells [gingival fibroblasts (HGF), and periodontal ligament fibroblasts (HPLF)] as described [42, 54 – 56]. […] The viable cell numbers were determined by the 3-(4,5-dimethylthiazol-2-yl)-2,5-diphenyltetrazolium bromide (MTT) assay. The CC50 values were determined from dose-response curves. […]

compound	CC50 at 48 h, µM
COc1ccccc1C1=NN(c2ccc(S(N)(=O)=O)cc2)C(c2ccc3c(c2)OCO3)C1 (stereo not drawn) [4d]	39.7
COc1cc(C2=NN(c3ccc(S(N)(=O)=O)cc3)C(c3ccc4c(c3)OCO4)C2)cc(OC)c1OC (stereo not drawn) [4i]	83.7
COc1ccc(C2=NN(c3ccc(S(N)(=O)=O)cc3)C(c3ccc4c(c3)OCO4)C2)cc1OC (stereo not drawn) [4e]	400

* * *

Each entry below carries its recorded Ki.
# measured.target: UniProtKB P00918

compound	unit.info	Ki
COc1ccc(C2=NN(c3ccc(S(N)(=O)=O)cc3)C(c3ccc4c(c3)OCO4)C2)cc1OC (centres unmarked)	µM	9.3
COc1cc(C2=NN(c3ccc(S(N)(=O)=O)cc3)C(c3ccc4c(c3)OCO4)C2)ccc1O (centres unmarked)	µM	9.3
COc1cc(C2=NN(c3ccc(S(N)(=O)=O)cc3)C(c3ccc4c(c3)OCO4)C2)cc(OC)c1OC (centres unmarked)	µM	24.1
COc1ccc(OC)c(C2=NN(c3ccc(S(N)(=O)=O)cc3)C(c3ccc4c(c3)OCO4)C2)c1 (centres unmarked)	µM	12.3
COc1ccc(C2=NN(c3ccc(S(N)(=O)=O)cc3)C(c3ccc4c(c3)OCO4)C2)cc1 (centres unmarked)	µM	11.5

* * *

# Test system: gingival carcinoma (Ca9-22) cells
# protocol.notes: Cytotoxicity assay (MTT), Ca9-22
# Type: cell-based, human
# test.parameters: Homo sapiens, Ca9-22; tumor cell line, 48 h, MTT
A collection of molecules and their measured CC50

molecule	CC50 [µM]
COc1cc(OC)c(C2=NN(c3ccc(S(N)(=O)=O)cc3)C(c3ccc4c(c3)OCO4)C2)cc1OC (stereo not shown) [4h]	400
COc1ccc(OC)c(C2=NN(c3ccc(S(N)(=O)=O)cc3)C(c3ccc4c(c3)OCO4)C2)c1 (stereo not shown) [4f]	9.7
NS(=O)(=O)c1ccc(N2N=C(c3ccccc3)CC2c2ccc3c(c2)OCO3)cc1 (stereo not shown) [4a]	17.1
O=c1[nH]cc(F)c(=O)[nH]1 [5-FU, 5-Fluorouracil, reference compound]	22
